Reported IC50 values for a set of compounds
- experimental.target: KRAS G13C (Homo sapiens (Human), UniProt P01116+P62937, G13C)
- Sequence (P01116 other isoform, or with tags, fused parts or gaps G13C, one chain of several): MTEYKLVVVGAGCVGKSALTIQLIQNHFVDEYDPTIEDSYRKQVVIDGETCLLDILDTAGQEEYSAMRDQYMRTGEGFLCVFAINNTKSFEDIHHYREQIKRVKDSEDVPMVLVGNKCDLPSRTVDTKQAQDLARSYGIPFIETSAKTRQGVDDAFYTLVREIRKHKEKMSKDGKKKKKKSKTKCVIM
- procedure.text: Ras-Raf disruption/FRET/MOA assay (BRAF RBD, Cyclophilin A)
- Format: biochemical
- stated.conditions: read-out: KRAS G13C FRET IC50
measure.name: IC50

compound	measure.name	reported.value
CCn1c(-c2cccnc2[C@H](C)OC)c2c3cc(ccc31)-c1csc(n1)C[C@H](NC(=O)[C@H](C(C)C)N(C)C(=O)N1CC3(CC(N(C)C(C)C)C3)C1)C(=O)N1CCC[C@H](N1)C(=O)OCC(C)(C)C2 [Compound A485]	IC50	100 to 1000 nM
CCn1c(-c2cnccc2COC)c2c3cc(ccc31)-c1cc(O)cc(c1)C[C@H](NC(=O)[C@H](C(C)C)N(C)C(=O)C1(C)COC1)C(=O)N1CCC[C@H](N1)C(=O)OCC(C)(C)C2 [Compound A49]	IC50	1000 to 10000 nM
CCn1c(-c2cccnc2[C@H](C)OC)c2c3cc(ccc31)-c1cc(O)cc(c1)C[C@H](NC(=O)[C@H](C(C)C)N(C)C(=O)C1CN3CCCN1CC3)C(=O)N1CCC[C@H](N1)C(=O)OCC(C)(C)C2 (stereo partly drawn) [Compound A404]	IC50	100 to 1000 nM

* * *

// IC50 lookup, one value per entry
- experimental.target: NRAS Q61K (Homo sapiens (Human), UniProt P01111+P62937, Q61K)
- Sequence (P01111 whole entry Q61K, one chain of several): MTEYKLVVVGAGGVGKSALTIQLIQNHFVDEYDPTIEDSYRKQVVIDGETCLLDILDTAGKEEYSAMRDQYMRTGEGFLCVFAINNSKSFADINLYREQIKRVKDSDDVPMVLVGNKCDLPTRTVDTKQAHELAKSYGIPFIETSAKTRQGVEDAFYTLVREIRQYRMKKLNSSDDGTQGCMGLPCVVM
- procedure.text: Ras-Raf disruption/FRET/MOA assay (BRAF RBD, Cyclophilin A)
- Type: biochemical
measure.name: IC50

molecule	reported.value
CCn1c(-c2cccnc2[C@H](C)OC)c2c3cc(ccc31)-c1csc(n1)C[C@H](NC(=O)N1CCC1)C(=O)N1CCC[C@H](N1)C(=O)OCC(C)(C)C2 [Compound A368]	100 to 1000 nM
CCn1c(-c2cccnc2[C@H](C)OC)c2c3cc(ccc31)-c1csc(n1)C[C@H](NC(=O)[C@H](C(C)C)N(C)C(=O)N1CC[C@@]13CCCN(C)C3)C(=O)N1CCC[C@H](N1)C(=O)OCC(C)(C)C2 [Compound A468]	100 to 1000 nM
CCn1c(-c2cccnc2[C@H](C)OC)c2c3cc(ccc31)-c1cccc(c1)C[C@H](NC(=O)[C@H](C(C)C)N(C)C(=O)[C@@H]1OCC[C@@H]1c1ccccc1)C(=O)N1CCC[C@H](N1)C(=O)OCC(C)(C)C2 [Compound A586]	100 to 1000 nM
CCn1c(-c2cccnc2[C@H](C)OC)c2c3cc(ccc31)-c1csc(n1)C[C@H](NC(=O)[C@H](C(C)C)N(C)C(=O)N1CCN(C)[C@@H](c3ccccc3)C1)C(=O)N1CCC[C@H](N1)C(=O)OCC(C)(C)C2 [Compound A524]	100 to 1000 nM

* * *

- experimental.target: K-Ras G12C(GMP-PNP) binding to BRAF RBD (Homo sapiens (Human), UniProt P01116+P62937, G12C)
- Sequence (P01116 other isoform, or with tags, fused parts or gaps G12C): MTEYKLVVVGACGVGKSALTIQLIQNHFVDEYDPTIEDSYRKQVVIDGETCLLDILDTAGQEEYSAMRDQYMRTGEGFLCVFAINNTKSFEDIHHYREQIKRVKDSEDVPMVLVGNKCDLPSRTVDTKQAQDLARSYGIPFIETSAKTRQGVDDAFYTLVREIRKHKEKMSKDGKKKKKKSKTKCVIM
- Sequence (P62937 whole entry): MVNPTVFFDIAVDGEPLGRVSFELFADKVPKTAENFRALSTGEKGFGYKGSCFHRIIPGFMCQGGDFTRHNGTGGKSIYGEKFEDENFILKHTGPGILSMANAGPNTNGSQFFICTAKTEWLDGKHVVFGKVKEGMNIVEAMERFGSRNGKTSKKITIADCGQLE
- procedure.text: Disruption of BRAF RBD interaction with K-Ras (FRET / MOA assay), K-Ras G12C
- Type: biochemical
- stated.conditions: read-out: KRAS G12C FRET IC50
measure.name: IC50

molecule	measure.name	reported.value
CCn1c(-c2cccnc2[C@H](C)OC)c2c3cc(ccc31)-c1csc(n1)[C@@H](OC)[C@H](NC(=O)[C@H](C(C)C)N(C)C(=O)N(C)C)C(=O)N1CCC[C@H](N1)C(=O)OCC(C)(C)C2 [Compound A598]	IC50	10 to 100 nM
C=CC(=O)N1CC[C@H](C(=O)N(C)[C@H](C(=O)N[C@H]2Cc3cccc(c3)-c3ccc4c(c3)c(c(-c3cccnc3[C@H](C)OC)n4CC)CC(C)(C)COC(=O)[C@@H]3CCCN(N3)C2=O)[C@H](C)C(F)(F)F)C1 (atropisomer, axis not shown) [Compound A641]	IC50	100 to 1000 nM
CCn1c(-c2cccnc2[C@H](C)OC)c2c3cc(ccc31)-c1cc(O)cc(c1)C[C@H](NC(=O)[C@H](C(C)C)N(C)C(=O)N1CC(OC)C1)C(=O)N1CCC[C@H](N1)C(=O)OCC(C)(C)C2 [Compound A364]	IC50	100 to 1000 nM
CCn1c(-c2cccnc2[C@H](C)OC)c2c3cc(ccc31)-c1csc(n1)C[C@H](NC(=O)[C@H](C(C)C)N(C)C(=O)N1CC[C@@]13CCCN(C)C3)C(=O)N1CCC[C@H](N1)C(=O)OCC(C)(C)C2 [Compound A468]	IC50	100 to 1000 nM
CCn1c(-c2cccnc2[C@H](C)OC)c2c3cc(ccc31)-c1csc(n1)C[C@H](NC(=O)[C@H](C(C)C)N(C)C(=O)N1CC(C)(OC)C1)C(=O)N1CCC[C@H](N1)C(=O)OCC(C)(C)C2 [Compound A299]	IC50	< 10 nM
CCn1c(-c2cccnc2[C@H](C)OC)c2c3cc(ccc31)-c1cc(O)cc(c1)C[C@H](NC(=O)[C@H](C(C)C)N(C)C(=O)C1(CN)CC1)C(=O)N1CCC[C@H](N1)C(=O)OCC(C)(C)C2 [Compound A139]	IC50	10 to 100 nM
CCn1c(-c2cccnc2[C@H](C)OC)c2c3cc(ccc31)-c1csc(n1)C[C@H](NC(=O)[C@H](C(C)C)N(C)C(=O)N1C[C@H]3COC[C@H]3C1)C(=O)N1CCC[C@H](N1)C(=O)OCC(C)(C)C2 [Compound A312]	IC50	> 10000 nM
CCn1c(-c2cccnc2[C@H](C)OC)c2c3cc(ccc31)-c1csc(n1)C[C@H](NC(=O)[C@@H]1CCO1)C(=O)N1CCC[C@H](N1)C(=O)OCC(C)(C)C2 [Compound A359]	IC50	10 to 100 nM
C=CC(=O)N(C)CC1CCN(C(=O)N(C)[C@H](C(=O)N[C@H]2Cc3nc(cs3)-c3ccc4c(c3)c(c(-c3cccnc3[C@H](C)OC)n4CC)CC(C)(C)COC(=O)[C@@H]3CCCN(N3)C2=O)C(C)C)CC1 (atropisomer, axis not shown) [Compound A629]	IC50	10 to 100 nM

* * *

- experimental.target: KRAS G12D (Homo sapiens (Human), UniProt P01116+P62937, G12D)
- Sequence (P01116 other isoform, or with tags, fused parts or gaps G12D): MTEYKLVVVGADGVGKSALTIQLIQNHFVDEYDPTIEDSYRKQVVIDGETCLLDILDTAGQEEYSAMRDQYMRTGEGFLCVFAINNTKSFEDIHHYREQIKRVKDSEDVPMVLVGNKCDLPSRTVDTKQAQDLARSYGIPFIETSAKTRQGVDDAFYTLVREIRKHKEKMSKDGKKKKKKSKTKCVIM
- Sequence (P62937 whole entry): as the sequence (P62937 whole entry) above
- procedure.text: Ras-Raf disruption/FRET/MOA assay (BRAF RBD, Cyclophilin A)
- Type: biochemical
- stated.conditions: read-out: KRAS G12D FRET IC50
measure.name: IC50

record.smiles	measure.name	reported.value
CCn1c(-c2cccnc2[C@H](C)OC)c2c3cc(ccc31)-c1cc(O)cc(c1)C[C@H](NC(=O)[C@H](C(C)C)N1CNCC1=O)C(=O)N1CCC[C@H](N1)C(=O)OCC(C)(C)C2	IC50	1000 to 10000 nM
CCn1c(-c2cccnc2[C@H](C)OC)c2c3cc(ccc31)-c1csc(n1)C[C@H](NC(=O)[C@H](C(C)C)N(C)C(=O)N1C[C@@H]3OCCN(C)[C@H]3C1)C(=O)N1CCC[C@H](N1)C(=O)OCC(C)(C)C2	IC50	1000 to 10000 nM
CCn1c(-c2cccnc2[C@H](C)OC)c2c3cc(ccc31)-c1csc(n1)C[C@H](NC(=O)[C@H](C(C)C)N(C)C(=O)N1CCN(C(=O)[C@@H]3CCCN3C)CC1)C(=O)N1CCC[C@H](N1)C(=O)OCC(C)(C)C2	IC50	100 to 1000 nM
CCn1c(-c2cccnc2[C@H](C)OC)c2c3cc(ccc31)-c1cc(O)cc(c1)C[C@H](NC(=O)[C@H](C(C)C)N(C)C(=O)[C@H]1CCCC[C@@H]1N)C(=O)N1CCC[C@H](N1)C(=O)OCC(C)(C)C2	IC50	100 to 1000 nM
CCn1c(-c2cccnc2[C@H](C)OC)c2c3cc(ccc31)-c1csc(n1)C[C@H](NC(=O)[C@H](C(C)C)N(C)C(=O)N1CCOCC13COC3)C(=O)N1CCC[C@H](N1)C(=O)OCC(C)(C)C2	IC50	1000 to 10000 nM
CCn1c(-c2cccnc2[C@H](C)OC)c2c3cc(ccc31)-c1csc(n1)C[C@H](NC(=O)[C@H](C(C)C)N(C)C(=O)N1CC[C@@]3(CCNC3=O)C1)C(=O)N1CCC[C@H](N1)C(=O)OCC(C)(C)C2	IC50	1000 to 10000 nM
CCO[C@@H]1c2nc(cs2)-c2ccc3c(c2)c(c(-c2cccnc2[C@H](C)OC)n3CC)CC(C)(C)COC(=O)[C@@H]2CCCN(N2)C(=O)[C@H]1NC(=O)[C@H]1[C@H](C)[C@@H]1c1cn(C)cn1	IC50	10 to 100 nM
CCn1c(-c2cccnc2[C@H](C)OC)c2c3cc(ccc31)-c1cccc(c1)C[C@H](NC(=O)[C@H](C(C)C)N(C)C(=O)N1CC(OC)C1)C(=O)N1CCC[C@H](N1)C(=O)OCC(C)(C)C2	IC50	1000 to 10000 nM
CCn1c(-c2cccnc2[C@H](C)OC)c2c3cc(ccc31)-c1cc(O)cc(c1)C[C@H](NC(=O)[C@@H]1CCCCCN1C(C)=O)C(=O)N1CCC[C@H](N1)C(=O)OCC(C)(C)C2	IC50	1000 to 10000 nM
